Biological target: UniProtKB P29473
Sequence (P29473 whole entry): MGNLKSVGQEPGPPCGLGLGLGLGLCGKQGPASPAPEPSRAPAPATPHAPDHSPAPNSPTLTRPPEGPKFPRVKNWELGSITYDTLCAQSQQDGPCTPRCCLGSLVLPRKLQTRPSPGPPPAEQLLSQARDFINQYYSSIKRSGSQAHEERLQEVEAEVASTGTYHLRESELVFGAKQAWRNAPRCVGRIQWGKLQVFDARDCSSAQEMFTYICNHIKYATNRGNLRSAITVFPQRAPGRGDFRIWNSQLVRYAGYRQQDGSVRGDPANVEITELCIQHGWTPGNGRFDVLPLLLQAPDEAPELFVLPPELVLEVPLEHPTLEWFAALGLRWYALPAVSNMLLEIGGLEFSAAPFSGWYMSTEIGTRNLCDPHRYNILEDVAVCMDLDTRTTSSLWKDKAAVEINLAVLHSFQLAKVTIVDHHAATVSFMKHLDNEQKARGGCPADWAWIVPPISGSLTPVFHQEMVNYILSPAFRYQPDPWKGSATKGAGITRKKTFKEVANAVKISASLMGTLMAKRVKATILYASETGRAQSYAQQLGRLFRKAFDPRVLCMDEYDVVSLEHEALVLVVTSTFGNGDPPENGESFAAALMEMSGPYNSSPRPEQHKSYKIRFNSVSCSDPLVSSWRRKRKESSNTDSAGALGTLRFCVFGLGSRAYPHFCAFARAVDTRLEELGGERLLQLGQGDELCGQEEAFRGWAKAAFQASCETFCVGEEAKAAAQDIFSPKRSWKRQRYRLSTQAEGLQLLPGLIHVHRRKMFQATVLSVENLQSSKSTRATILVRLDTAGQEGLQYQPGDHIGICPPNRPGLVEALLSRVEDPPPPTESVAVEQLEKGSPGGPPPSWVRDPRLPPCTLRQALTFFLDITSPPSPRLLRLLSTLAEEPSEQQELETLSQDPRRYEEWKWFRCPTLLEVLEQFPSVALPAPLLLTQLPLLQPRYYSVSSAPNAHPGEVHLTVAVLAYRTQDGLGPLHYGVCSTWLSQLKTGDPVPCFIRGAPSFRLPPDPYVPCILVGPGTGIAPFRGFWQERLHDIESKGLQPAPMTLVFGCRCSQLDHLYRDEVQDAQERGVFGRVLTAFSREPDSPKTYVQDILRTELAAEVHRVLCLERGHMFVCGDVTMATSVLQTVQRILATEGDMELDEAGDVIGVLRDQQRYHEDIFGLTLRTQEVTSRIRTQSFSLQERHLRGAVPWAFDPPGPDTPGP
Experiment: Inhibition of bovine recombinant eNOS using [3H]L-arginine substrate assessed as formation of [3H]L-citruline by liquid scintillation counting analysis
pIC50: −log10 of the molar value.
# pIC50 listing for each entry below
attributeMeasured: pIC50

In [3]: df
Out[3]:
                                smilesentry  attributemeasured  valuemodifier   val
0  CC(=N)NCc1cccc(CNC(=O)c2ccc(C(=O)O)cc2)c1              pIC50              =  4.04
1  CC(=N)NCc1cccc(CNCc2ccccc2[N+](=O)[O-])c1              pIC50              =  4.52
2         CC(=N)NCc1cccc(CNC(=O)CCC(=O)O)c1              pIC50              <  3.00
3  CC(=N)NCc1cccc(CN(Cc2ccc([N+](=O)[O-])cc2)Cc2ccc([N+](=O)[O-])cc2)c1              pIC50              =  4.00

* * *

Listed here are molecules together with their documented IC50.
Molecular target: Nitric oxide synthase, inducible (Mus musculus, UniProt P29477)
Sequence (P29477 whole entry): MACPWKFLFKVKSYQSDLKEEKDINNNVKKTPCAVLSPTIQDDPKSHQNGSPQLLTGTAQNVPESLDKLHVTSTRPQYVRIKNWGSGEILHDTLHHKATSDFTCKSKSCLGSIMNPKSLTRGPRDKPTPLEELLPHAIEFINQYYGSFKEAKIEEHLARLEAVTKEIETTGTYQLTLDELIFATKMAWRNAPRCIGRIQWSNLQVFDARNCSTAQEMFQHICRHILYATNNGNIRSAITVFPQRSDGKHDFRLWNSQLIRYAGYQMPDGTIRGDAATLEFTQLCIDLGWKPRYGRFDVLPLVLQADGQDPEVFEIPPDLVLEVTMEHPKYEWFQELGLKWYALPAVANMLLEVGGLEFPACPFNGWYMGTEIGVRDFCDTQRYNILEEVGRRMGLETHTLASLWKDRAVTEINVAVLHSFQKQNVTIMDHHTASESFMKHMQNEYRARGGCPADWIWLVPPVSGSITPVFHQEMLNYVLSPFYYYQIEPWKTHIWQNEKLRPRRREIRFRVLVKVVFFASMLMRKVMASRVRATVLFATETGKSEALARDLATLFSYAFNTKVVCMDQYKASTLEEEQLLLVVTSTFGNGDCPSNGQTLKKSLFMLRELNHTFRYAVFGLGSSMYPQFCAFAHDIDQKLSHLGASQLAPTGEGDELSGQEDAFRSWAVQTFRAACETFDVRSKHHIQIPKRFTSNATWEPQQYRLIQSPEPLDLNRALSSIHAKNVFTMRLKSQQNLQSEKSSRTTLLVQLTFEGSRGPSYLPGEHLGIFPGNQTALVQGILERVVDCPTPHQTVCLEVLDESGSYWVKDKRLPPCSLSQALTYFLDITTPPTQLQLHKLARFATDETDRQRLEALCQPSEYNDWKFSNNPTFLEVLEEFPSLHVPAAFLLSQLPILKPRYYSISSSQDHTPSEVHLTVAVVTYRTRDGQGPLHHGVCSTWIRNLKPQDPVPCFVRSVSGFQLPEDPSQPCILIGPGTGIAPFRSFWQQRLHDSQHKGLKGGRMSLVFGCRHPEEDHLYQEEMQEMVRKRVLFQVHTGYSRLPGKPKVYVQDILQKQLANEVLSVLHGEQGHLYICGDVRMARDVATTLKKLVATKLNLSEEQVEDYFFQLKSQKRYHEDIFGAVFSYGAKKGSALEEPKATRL
Assay: Inhibition of mouse recombinant iNOS using [3H]L-arginine substrate assessed as formation of [3H]L-citruline by liquid scintillation counting analysis
attributeMeasured: IC50 (nM)

>>> print(df.to_string())
                                   molecule  attributemeasured  valuemodifier    val
0         CC(=N)NCc1cccc(CNC(=O)CCC(=O)O)c1               IC50              =    428
1              CC(=N)NCc1cccc(CN)c1 [1400W]               IC50              =    100
2  CC(=N)NCc1cccc(CNC(=O)c2ccc(C(=O)O)cc2)c1               IC50              =    165
3          CC(=N)NCc1cccc(CNC(=O)CC(=O)O)c1               IC50              >  10000
4  CC(=N)NCc1cccc(CNCc2ccccc2[N+](=O)[O-])c1               IC50              =    100
5              CC(=N)NCc1cccc(CNC(=O)CCN)c1               IC50              >  10000
6             CC(=N)NCc1cccc(CNC(=O)CCCN)c1               IC50              >  10000
7  CC(=N)NCc1cccc(CN(Cc2ccc([N+](=O)[O-])cc2)Cc2ccc([N+](=O)[O-])cc2)c1               IC50              =    500
8               CC(=N)NCc1cccc(CNC(=O)CN)c1               IC50              >  10000

* * *

Reported Ratio IC50 values are given for each entry in this list.
Assay: Selectivity ratio of IC50 for bovine recombinant eNOS to IC50 for mouse recombinant iNOS
attributeMeasured: Ratio IC50

>>> print(df.to_string())
                                smilesentry  attributemeasured     val
0         CC(=N)NCc1cccc(CNC(=O)CCC(=O)O)c1         Ratio IC50  > 2300
1  CC(=N)NCc1cccc(CNCc2ccccc2[N+](=O)[O-])c1         Ratio IC50     300
2  CC(=N)NCc1cccc(CN(Cc2ccc([N+](=O)[O-])cc2)Cc2ccc([N+](=O)[O-])cc2)c1         Ratio IC50     200
3  CC(=N)NCc1cccc(CNC(=O)c2ccc(C(=O)O)cc2)c1         Ratio IC50     550
